In this section, each of the compounds is paired with its reported T/C.
test system: P388 leukemia ip, CD2F1 mice, survival T/C; experiment: NCI In Vivo Anticancer Drug Screen. Data for tumor model P388 Leukemia (intraperitoneal) in CD2F1 (CDF1) mice; settings: endpoint: median survival time; dose: 120.0 mg/kg/injection; schedule: Q01DX005 (ip); vehicle: Klucel (hydroxypropylcellulose) (HPC); higher = longer survival
Inconclusive results and toxic doses are left out.

In [3]: df
Out[3]:
                                   compound    value_measured
0  CS(C)=O.CS(C)=O.CS(C)=O.CS(C)=O.[Cl][Ru][Cl]  101 % of control

Now look at this one.
Item under review: O=C1CN=C(c2ccccc2)N(c2ccccc2)N1 . Reported T/C?
100 % of control
